Data origin, for the record: patent EP4702986A1

# Assay overview: Determination of half-lives of polypeptides (plasma, LC-MS)
# Condition context: C57 BL/6 mice, i.v.; dosage per compound 0.48, 0.96 or 1 mpk
Numbered stars: 1 amine (or outer) side, 2 acyl side, 3 side chain; on linkers, the order of the positions; unused ones are H or OH. Bridge positions count the residues as written; N and C are the ends. Peptide text beside a SMILES is read from it. * marks the point of attachment. Fumaroyl = O=C(O)/C=C/C(=O)*; Suc = O=C(CCC(=O)[*:2])[*:1]
Value type: AUClast 0-30 min (ng·h/mL)
Reply numerically in ng·h/mL, unit not repeated.

// known answers, use as guide
# Compound, AUClast 0-30 min, ng·h/mL
measured = [
    ("CC[C@H](C)[C@H](NC(=O)[C@H](CC(=O)O)NC(=O)[C@H](CCCCN)NC(=O)[C@H](Cc1c[nH]cn1)NC(=O)[C@H](C)NC(=O)[C@H](Cc1ccccc1)NC(=O)[C@H](Cc1ccc(O)cc1)NC(=O)[C@@H](NC(=O)[C@H](C)NC(=O)[C@H](CCC(=O)O)NC(=O)[C@H](CCC(=O)O)NC(=O)[C@H](CC(=O)O)NC(=O)/C=C/C(=O)O)C(C)C)C(=O)N[C@H](C(=O)N[C@@H](Cc1c[nH]c2ccccc12)C(=O)O)[C@@H](C)CC [F-BX-5] (Fumaroyl-DEEAVYFAHKDIIW-OH)", 127),
    ("CC[C@H](C)[C@H](NC(=O)[C@H](CC(=O)O)NC(=O)[C@H](CC(C)C)NC(=O)[C@H](Cc1c[nH]cn1)NC(=O)[C@H](C)NC(=O)[C@H](Cc1ccccc1)NC(=O)[C@H](Cc1ccc(O)cc1)NC(=O)[C@@H]1CSSC[C@H](NC(=O)[C@H](CCC(=O)O)NC(=O)[C@H](CC(=O)O)NC(=O)CCC(=O)O)C(=O)N[C@@H](CCC(=O)O)C(=O)N[C@@H](CCC(=O)O)C(=O)N1)C(=O)N[C@H](C(=O)N[C@@H](Cc1c[nH]c2ccccc12)C(=O)O)[C@@H](C)CC [BX-56] (Suc-DECEECYFAHLDIIW-OH; disulfide 3-6)", 1376),
    ("CC[C@H](C)[C@H](NC(=O)[C@H](CC(=O)O)NC(=O)[C@H](CC(C)C)NC(=O)[C@H](Cc1c[nH]cn1)NC(=O)[C@H](C)NC(=O)[C@H](Cc1ccccc1)NC(=O)[C@H](Cc1ccc(O)cc1)NC(=O)[C@@H]1CCCCNC(=O)CC[C@H](NC(=O)[C@H](CC(=O)O)NC(=O)CCC(=O)O)C(=O)N[C@@H](CCC(=O)O)C(=O)N[C@@H](C)C(=O)N1)C(=O)N[C@H](C(=O)N[C@@H](Cc1c[nH]c2ccccc12)C(=O)O)[C@@H](C)CC [BX-48] (Suc-DEEAKYFAHLDIIW-OH; lactam 2-5)", 757),
    ("CC[C@H](C)[C@H](NC(=O)[C@@H](NC(=O)[C@H](CC(=O)O)NC(=O)[C@H](CC(C)C)NC(=O)[C@H](Cc1c[nH]cn1)NC(=O)[C@H](C)NC(=O)[C@H](Cc1ccccc1)NC(=O)[C@H](Cc1ccc(O)cc1)NC(=O)[C@@H]1CCCCNC(=O)CC[C@H](NC(=O)[C@H](CC(=O)O)NC(=O)CCC(=O)O)C(=O)N[C@@H](CCC(=O)O)C(=O)N[C@@H](C)C(=O)N1)C(C)C)C(=O)N[C@@H](Cc1c[nH]c2ccccc12)C(=O)O [BX-76] (Suc-DEEAKYFAHLDVIW-OH; lactam 2-5)", 250),
]

Give the measured AUClast 0-30 min of CC[C@H](C)[C@H](NC(=O)[C@H](CC(=O)O)NC(=O)[C@H](CC(C)C)NC(=O)[C@H](Cc1c[nH]cn1)NC(=O)[C@H](C)NC(=O)[C@H](Cc1ccccc1)NC(=O)[C@H](Cc1ccc(O)cc1)NC(=O)[C@@H](NC(=O)[C@H](C)NC(=O)[C@H](CCC(=O)O)NC(=O)[C@H](CCC(=O)O)NC(=O)[C@H](CC(=O)O)NC(=O)CCC(=O)O)C(C)C)C(=O)N[C@H](C(=O)N[C@@H](Cc1c[nH]c2ccccc12)C(=O)O)[C@@H](C)CC [IRL1620, reference compound] (Suc-DEEAVYFAHLDIIW-OH) .
130

----------
# Subject of test: human ETB receptor (Homo sapiens)
# Construct: expressed in transfected cells; host or cells: 293T-17 cells, transient transfection
# Sequence (P24530 27-442): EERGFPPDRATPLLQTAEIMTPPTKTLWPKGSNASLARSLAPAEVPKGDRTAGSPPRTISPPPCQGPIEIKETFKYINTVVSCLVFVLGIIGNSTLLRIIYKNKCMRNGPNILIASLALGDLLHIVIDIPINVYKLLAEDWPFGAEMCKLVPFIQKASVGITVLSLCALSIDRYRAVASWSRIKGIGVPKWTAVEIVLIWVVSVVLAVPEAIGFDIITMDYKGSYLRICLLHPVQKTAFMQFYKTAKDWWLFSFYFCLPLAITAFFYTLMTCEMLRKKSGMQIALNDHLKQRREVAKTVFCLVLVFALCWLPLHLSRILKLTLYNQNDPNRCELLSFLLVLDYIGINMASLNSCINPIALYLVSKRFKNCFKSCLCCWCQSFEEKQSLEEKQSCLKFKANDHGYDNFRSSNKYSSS
# Assay overview: Screening of polypeptides for activity on human ETB receptor (IP-One Gq kit, % of positive control IRL1620)
# Type: cell-based
Numbered stars: 1 amine (or outer) side, 2 acyl side, 3 side chain; on linkers, the order of the positions; unused ones are H or OH. Square brackets hold non-standard residues; d marks the D form. Side chains are listed from the residue outwards. Ends that are not written are not given here. * marks the point of attachment. C18 diacid = O=C(O)CCCCCCCCCCCCCCCCC(=O)*; γGlu = O=C(O)[C@H](CCC(=O)[*:2])N[*:1]; NMeI = CC[C@H](C)[C@H](NC)C(=O)O; Fumaroyl = O=C(O)/C=C/C(=O)*; Suc = O=C(CCC(=O)[*:2])[*:1]; AEEA = NCCOCCOCC(=O)O
Value type: hETBR agonist activity, percentage of activity relative to IRL1620 (%@100nM)
Give the quantity in %@100nM, number only.

Consider the following illustrative entries.
# Substance, Unit abbreviation, Measured
rows = [
    ("MeO-Fum-D cyclo(EEAK)YFAHLD(2-Abu)IW [BX-65]", "%@100nM", 99.24),
    ("Suc-DEEAVYFAHK(-γE-AEEA-AEEA-ODDA)DVIW (Suc-DEEAVYFAHK([γGlu-AEEA-AEEA-C18 diacid])DVIW) [BX-78]", "%@100nM", 23.41),
    ("Fum-DEEAKYFAHLDVIW (Fumaroyl-DEEAKYFAHLDVIW) [BX-106]", "%@100nM", 117.63),
    ("MeO-Fum-DEEAVYFAHK(-γE-AEEA-AEEA-ODDA)DIIW ({MeO‑Fum}-DEEAVYFAHK([γGlu-AEEA-AEEA-C18 diacid])DIIW) [BX-75]", "%@100nM", -10.59),
    ("Suc-DE cyclo(CEEC)YFAHKDIIW (Suc-DECEECYFAHKDIIW; not fully specified (bridges); printed as Suc-DE cyclo(CEEC)YFAHKDIIW; also: cyclo(CEEC) in N-terminal extension, bond type not given here) [BX-57]", "%@100nM", 121.58),
]

Consider the substance Fum-DEEAVYFAHKDVIW (Fumaroyl-DEEAVYFAHKDVIW) [BX-23] and give its measured hETBR agonist activity, percentage of activity relative to IRL1620.
89.28

Return reported hETBR agonist activity, percentage of activity relative to IRL1620; argument: Fum-DEEEVYFAHOrnDIIW [BX-59]
93.46

Field request: hETBR agonist activity, percentage of activity relative to IRL1620 | item: Fum-DEEAKYFAHLDIIW (Fumaroyl-DEEAKYFAHLDIIW) [BX-105]
253.05

Given Fum-DEEAVYFK(-γE-AEEA-AEEA-ODDA)HLDIIW (Fumaroyl-DEEAVYFK([γGlu-AEEA-AEEA-C18 diacid])-{H2N-Leu-Asp-Ile-Ile-Trp}) [BX-68] , state its recorded hETBR agonist activity, percentage of activity relative to IRL1620.
-18.64

State the recorded hETBR agonist activity, percentage of activity relative to IRL1620 for this entry: Fum-DEEAKYFAHK(-γE-AEEA-AEEA-ODDA)DVIW (Fumaroyl-DEEAKYFAHK([γGlu-AEEA-AEEA-C18 diacid])DVIW) [BX-108]
9.56

Which hETBR agonist activity, percentage of activity relative to IRL1620 is reported for this substance? Suc-DEEAVYFAHLDI(N-Me)IW (Suc-DEEAVYFAHLDI[NMeI]W) [BX-25]
28.86

# query: hETBR agonist activity, percentage of activity relative to IRL1620 of entry Fum-DEEEVYFAHKDIIW (Fumaroyl-DEEEVYFAHKDIIW) [BX-52]
121.00
